System: pigweed (Amaranthus retroflexus)
Assay: Test A preemergence, pigweed
Assay type: in vivo
Settings: Preemergence, 31 g ai/ha; 0 to 100 scale (0 no effect, 100 complete control)
Readout Name: Plant response rating, Pigweed
Please give the numeric answer without any surrounding text.

Asked: Suppose we examine the molecule `Cc1cccc(Oc2ncc(Cl)cn2)c1OC/C=C/C(F)(F)F` ; what Plant response rating, Pigweed value has been reported?
Given back: 0

Asked: Same again, this time with `N#Cc1cccc(Oc2ncc(F)cn2)c1OC/C=C/C(F)(F)F`
Given back: 100

Asked: Now try `Cc1cccc(Oc2ncc(Cl)cn2)c1OCCCC#N` .
Given back: 0

Asked: Next molecule: `FC(F)(F)/C=C/COc1c(Cl)cccc1Oc1ncc(Cl)cn1`
Given back: 0

Asked: Also check `N#Cc1cccc(Oc2ncc(Cl)cn2)c1OCCCF`
Given back: 100

Asked: Another molecule to look at: `Cc1cccc(Oc2ncc(Cl)cn2)c1OCCC(F)(F)F`
Given back: 0

Asked: Another: `FC(F)=C(F)CCOc1c(Br)cccc1Oc1ncc(Cl)cn1`
Given back: 0

Asked: And for `N#Cc1cccc(Oc2ncc(F)cn2)c1OCCC(F)(F)F` ?
Given back: 100

Asked: Next up: `C#Cc1cccc(Oc2ncc(Cl)cn2)c1OCCCF`
Given back: 0

Asked: Same again, this time with `CCC(=O)COc1c(Br)cccc1Oc1ncc(Cl)cn1`
Given back: 0

Asked: Consider next the molecule `FC(F)(F)CCCOc1c(Cl)cccc1Oc1ncc(Cl)cn1` in the same way.
Given back: 0

Asked: Now consider `N#Cc1cccc(Oc2ncc(Cl)cn2)c1OC/C=C/Cl` and answer again.
Given back: 60

Asked: What do you have for `N#CCCCOc1c(C#N)cccc1Oc1ncc(F)cn1` ?
Given back: 100

* * *

Tested on: sedge, umbrella (small-flower umbrella sedge, Cyperus difformis)
Assay: Test B flooded paddy test, umbrella sedge
Type: in vivo
Details: 250 g ai/ha, Flood; visual rating after 13 to 15 days; scale 0 to 100, 0 is no effect, 100 is complete control
Readout Name: Plant response rating, Sedge, Umbrella
Lab note: write the figure by itself, no unit.

Worked examples follow.
In [3]: df
Out[3]:
                                   compound                              assay_system  value_observed
0  N#Cc1cccc(Oc2ncc(F)cn2)c1OCCCF [Compound 30]  sedge, umbrella (small-flower umbrella sedge, Cyperus difformis)              40
1  FC(F)(F)CCCOc1c(Br)cccc1Oc1ncc(Cl)cn1 [Compound 31]  sedge, umbrella (small-flower umbrella sedge, Cyperus difformis)             100
2  Fc1cccc(Oc2ncc(Cl)cn2)c1OC/C=C/C(F)(F)F [Compound 25]  sedge, umbrella (small-flower umbrella sedge, Cyperus difformis)              75
3  N#Cc1cccc(Oc2ncc(Cl)cn2)c1OCc1ccc(Cl)cn1 [Compound 6]  sedge, umbrella (small-flower umbrella sedge, Cyperus difformis)               0
4  FC(F)=C(F)CCOc1c(Br)cccc1Oc1ncc(Cl)cn1 [Compound 38]  sedge, umbrella (small-flower umbrella sedge, Cyperus difformis)             100
5  FC(F)C(F)(F)C(F)(F)C(F)(F)COc1c(Br)cccc1Oc1ncc(Cl)cn1 [Compound 53]  sedge, umbrella (small-flower umbrella sedge, Cyperus difformis)              80
6  Cc1cccc(Oc2ncc(Cl)cn2)c1OC/C=C/C(F)(F)F [Compound 58]  sedge, umbrella (small-flower umbrella sedge, Cyperus difformis)             100
7  CCCCCOc1c(C#N)cccc1Oc1ncc(Cl)cn1 [Compound 51]  sedge, umbrella (small-flower umbrella sedge, Cyperus difformis)              95

Let us examine a further case.
Asked: Entry N#Cc1cccc(Oc2ncc(Cl)cn2)c1OCc1ccc(C(F)(F)F)cc1 [Compound 20] : reported Plant response rating, Sedge, Umbrella = ?
Given back: 0
